This collection of values is drawn from paper PMC6130797.

Documented EC50 across a set of molecules
target: gpH2R (Cavia porcellus, UniProt P47747); experiment: biochemical; type: biochemical, guinea pig
Sequence (P47747 whole entry): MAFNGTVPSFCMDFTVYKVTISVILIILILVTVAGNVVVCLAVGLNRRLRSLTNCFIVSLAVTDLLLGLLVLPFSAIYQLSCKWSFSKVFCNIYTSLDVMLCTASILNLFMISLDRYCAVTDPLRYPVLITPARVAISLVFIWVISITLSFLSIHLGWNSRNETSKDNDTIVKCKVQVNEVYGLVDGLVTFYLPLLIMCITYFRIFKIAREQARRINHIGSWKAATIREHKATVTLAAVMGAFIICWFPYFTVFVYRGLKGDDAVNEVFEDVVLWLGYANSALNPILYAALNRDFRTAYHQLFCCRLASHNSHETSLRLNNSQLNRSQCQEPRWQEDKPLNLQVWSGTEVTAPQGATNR
Sequence (P63092 1-380 isoform P63092-2 partner): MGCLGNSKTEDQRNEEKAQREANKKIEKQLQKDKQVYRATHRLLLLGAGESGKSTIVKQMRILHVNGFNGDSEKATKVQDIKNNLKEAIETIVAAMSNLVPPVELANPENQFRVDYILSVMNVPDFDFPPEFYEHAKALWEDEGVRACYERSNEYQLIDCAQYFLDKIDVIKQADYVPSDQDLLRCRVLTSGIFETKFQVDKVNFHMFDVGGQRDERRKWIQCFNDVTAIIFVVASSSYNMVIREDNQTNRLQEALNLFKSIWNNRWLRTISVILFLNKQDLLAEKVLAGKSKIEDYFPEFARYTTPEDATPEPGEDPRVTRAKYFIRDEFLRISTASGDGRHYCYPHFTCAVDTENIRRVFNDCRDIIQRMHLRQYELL
recorded_metric: EC50 (nM)

N=C(NCCCCCCCCNC(=N)NCCCc1c[nH]cn1)NCCCc1c[nH]cn1 [Compound 5] :: 25.1
N=C(NCCCCCCCCCCCCNC(=N)NCCCc1c[nH]cn1)NCCCc1c[nH]cn1 [Compound 57] :: 29.5
Cc1nc(N)sc1CCCNC(=N)NCCCCCCCCNC(=N)NCCCc1cnc(N)s1 [Compound 63] :: 46.8
Cc1nc(N)sc1CCCNC(=N)NCCCCCCCCNC(=N)NCCCc1sc(N)nc1C [Compound 58] :: 52.5
